Every entry's value here was drawn from PubChem BioAssay.

Experiment: viability loss with induced miR-34 in A549 – imaging, A549 dox-inducible miR-34, nuclei and caspase counts, primary screen (AID 1347080); also: test concentration not given here
Conditions: A549 miR-34 inducible, Hoechst nuclei count, 48 h; active compounds read low; cell number ratio, induced over uninduced
As shown below, each of these molecules has a reported fold change value.

- line notation: "Cc1c(C(=O)NC2CCCCC2)sc2nc3ccc(N)cc3n12"
  fold change: 0.889
- line notation: "NC1(Cc2ccc(Cl)cc2)CCN(c2ncnc3[nH]ccc23)CC1"
  fold change: 0.99
- line notation: "CN1CCN(CCc2ccc(Cl)c(Cl)c2)CC1"
  fold change: 1.04
- line notation: "Cc1ccc(NC(=O)c2cccc(C(C)(C)C#N)c2)cc1Nc1ccc2ncn(C)c(=O)c2c1"
  fold change: 0.944
- line notation: "CCCC1([C@@H](O)C/C=C/[C@H]2[C@H](O)CC(=O)[C@@H]2CCCCCCC(=O)O)CCC1"
  fold change: 0.95
